test.target: T1, human Galectin-3 (Gal3), full-length recombinant (human, UniProt P17931 2-250)
T1 construct: treated here as one molecule; also called hGAL3; hGal3
T1 sequence (P17931 2-250 limits assumed): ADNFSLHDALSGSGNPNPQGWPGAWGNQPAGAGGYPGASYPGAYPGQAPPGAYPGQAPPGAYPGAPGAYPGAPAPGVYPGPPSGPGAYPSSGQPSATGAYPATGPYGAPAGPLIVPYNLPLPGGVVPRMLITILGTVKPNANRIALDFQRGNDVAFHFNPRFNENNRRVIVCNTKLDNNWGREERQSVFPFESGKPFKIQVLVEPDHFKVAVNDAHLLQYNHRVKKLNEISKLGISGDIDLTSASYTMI
assay.protocol: blocking ELISA, Gal3 coated, PDGFR beta-Fc, antibody 20 µg/ml
readout.kind: % blocking of Gal3-PDGFR beta binding

Exercise: Fill in the blank: the reported % blocking of Gal3-PDGFR beta binding of 13G4.2F8 (antibody, human IgG4 S228P, kappa, V domains shown) VH: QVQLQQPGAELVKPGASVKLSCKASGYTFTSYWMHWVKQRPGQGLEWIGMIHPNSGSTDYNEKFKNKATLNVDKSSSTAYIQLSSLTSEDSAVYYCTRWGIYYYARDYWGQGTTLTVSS VL: DIVMTQSQKFMSTSVGERVSITCKASQNVGTNVAWYQQKAGQSLELLIYGASNRHTGVPDRFTGSGSGTDFTLTITNVQSEDMTNYFCEQYSNFPLTFGAGTKLELKR is ____.
Key: < 30%
